Data provenance is ChEMBL document CHEMBL1138837.

# measured.target: Mu-type opioid receptor (Rattus norvegicus, UniProt P33535)
# Sequence (P33535 whole entry): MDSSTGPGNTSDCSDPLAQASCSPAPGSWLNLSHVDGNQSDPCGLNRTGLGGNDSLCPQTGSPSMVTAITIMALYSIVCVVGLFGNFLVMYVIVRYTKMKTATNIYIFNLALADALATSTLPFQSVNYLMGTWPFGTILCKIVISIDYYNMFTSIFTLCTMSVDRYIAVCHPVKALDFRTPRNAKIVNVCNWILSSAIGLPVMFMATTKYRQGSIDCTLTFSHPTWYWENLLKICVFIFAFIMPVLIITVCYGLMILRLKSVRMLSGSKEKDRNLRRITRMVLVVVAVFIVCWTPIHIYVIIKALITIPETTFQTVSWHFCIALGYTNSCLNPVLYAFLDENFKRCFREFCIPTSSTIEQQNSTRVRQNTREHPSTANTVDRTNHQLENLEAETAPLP
# protocol: Affinity for Opioid receptor mu 1 in rat brain membranes
# Assay type: cell membranes
Residues, ends and D or L forms follow the SMILES beside them.
outcome.measure: Ki (nM)

INSERT INTO assay_data (molecule, measured_target, display_unit, data_value) VALUES
  ('N[C@@H](Cc1ccc(O)cc1)C(=O)N1CCC[C@H]1C(=O)N[C@@H](Cc1ccccc1)C(=O)O (H-Tyr-Pro-Phe-OH)', 'Mu-type opioid receptor (Rattus norvegicus, UniProt P33535)', 'nM', 46.3);

* * *

# measured.target: Delta-type opioid receptor (Rattus norvegicus)
# Sequence (P33533 whole entry): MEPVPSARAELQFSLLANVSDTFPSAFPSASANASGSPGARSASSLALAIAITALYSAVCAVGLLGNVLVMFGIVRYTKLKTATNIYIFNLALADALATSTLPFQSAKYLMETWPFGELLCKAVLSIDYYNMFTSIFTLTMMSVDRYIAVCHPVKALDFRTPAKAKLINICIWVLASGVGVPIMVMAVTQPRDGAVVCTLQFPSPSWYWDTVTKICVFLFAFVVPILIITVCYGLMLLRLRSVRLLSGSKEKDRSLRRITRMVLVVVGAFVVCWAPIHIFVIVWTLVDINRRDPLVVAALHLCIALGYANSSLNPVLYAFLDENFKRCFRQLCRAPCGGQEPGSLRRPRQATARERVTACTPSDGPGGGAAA
# protocol: Displacement of [3H]Ile5,6-deltorphin II from opioid receptor delta 1 of rat brain membranes
pKi: −log10 of the molar value.
outcome.measure: pKi

INSERT INTO measurements (smiles_representation, data_value) VALUES
  ('C[C@H](c1ccccc1)[C@H](NC(=O)[C@@H]1CCCN1C(=O)[C@@H](N)Cc1ccc(O)cc1)C(=O)N[C@@H](Cc1ccccc1)C(N)=O', '< 5.00'),
  ('C[C@@H](c1ccccc1)[C@@H](NC(=O)[C@H](Cc1ccccc1)NC(=O)[C@@H]1CCCN1C(=O)[C@@H](N)Cc1ccc(O)cc1)C(N)=O', '< 5.00'),
  ('C[C@@H](c1ccccc1)[C@@H](NC(=O)[C@@H]1CCCN1C(=O)[C@@H](N)Cc1ccc(O)cc1)C(=O)N[C@@H](Cc1ccccc1)C(N)=O', '< 5.00');

* * *

# protocol: Half-life in rat brain homogenate
# Format: ADME
Catalogue of half-life readings, one per entry.
outcome.measure: half-life

INSERT INTO results (compound, data_value) VALUES
  ('C[C@@H](c1ccccc1)[C@H](NC(=O)[C@H](Cc1ccccc1)NC(=O)[C@@H]1CCCN1C(=O)[C@@H](N)Cc1ccc(O)cc1)C(N)=O', '16.1 min'),
  ('NC(=O)[C@H](Cc1ccccc1)NC(=O)[C@H](Cc1c[nH]c2ccccc12)NC(=O)[C@@H]1CCCN1C(=O)[C@@H](N)Cc1ccc(O)cc1 [ENDOMORPHIN-1]', '4.9 min'),
  ('NC(=O)[C@H](Cc1ccccc1)NC(=O)[C@H](Cc1ccccc1)NC(=O)[C@@H]1CCCN1C(=O)[C@@H](N)Cc1ccc(O)cc1 [ENDOMORPHIN 2]', '3.8 min'),
  ('C[C@@H](c1ccccc1)[C@H](NC(=O)[C@H](Cc1c[nH]c2ccccc12)NC(=O)[C@@H]1CCCN1C(=O)[C@@H](N)Cc1ccc(O)cc1)C(N)=O', '10.7 min');

* * *

# Organism: Rattus norvegicus
# protocol: In vitro effective dose against [35S]GTP-gamma-S, binding to rat brain membranes
# Format: functional
# setup.conditions: Membrane
Catalogue of log10 of ED50 readings, one per entry.
outcome.measure: log10 of ED50 (log10 of the value in nM)

INSERT INTO measurements (compound, data_value) VALUES
  ('C[C@H](c1ccccc1)[C@H](NC(=O)[C@@H]1CCCN1C(=O)[C@@H](N)Cc1ccc(O)cc1)C(=O)N[C@@H](Cc1ccccc1)C(N)=O', 3.26),
  ('C[C@H](c1ccccc1)[C@H](NC(=O)[C@H](Cc1ccccc1)NC(=O)[C@@H]1CCCN1C(=O)[C@@H](N)Cc1ccc(O)cc1)C(N)=O', 2.66),
  ('C[C@@H](c1ccccc1)[C@@H](NC(=O)[C@H](Cc1c[nH]c2ccccc12)NC(=O)[C@@H]1CCCN1C(=O)[C@@H](N)Cc1ccc(O)cc1)C(N)=O', 2.89),
  ('C[C@H](c1ccccc1)[C@@H](NC(=O)[C@H](Cc1ccccc1)NC(=O)[C@@H]1CCCN1C(=O)[C@@H](N)Cc1ccc(O)cc1)C(N)=O', 2.02),
  ('C[C@@H](c1ccccc1)[C@H](NC(=O)[C@H](Cc1ccccc1)NC(=O)[C@@H]1CCCN1C(=O)[C@@H](N)Cc1ccc(O)cc1)C(N)=O', 2.14),
  ('C[C@H](c1ccccc1)[C@H](NC(=O)[C@H](Cc1c[nH]c2ccccc12)NC(=O)[C@@H]1CCCN1C(=O)[C@@H](N)Cc1ccc(O)cc1)C(N)=O', 2.32),
  ('C[C@H](c1ccccc1)[C@@H](NC(=O)[C@@H]1CCCN1C(=O)[C@@H](N)Cc1ccc(O)cc1)C(=O)N[C@@H](Cc1ccccc1)C(N)=O', 0.89),
  ('C[C@@H](c1ccccc1)[C@H](NC(=O)[C@@H]1CCCN1C(=O)[C@@H](N)Cc1ccc(O)cc1)C(=O)N[C@@H](Cc1ccccc1)C(N)=O', 3.21),
  ('C[C@@H](c1ccccc1)[C@@H](NC(=O)[C@H](Cc1ccccc1)NC(=O)[C@@H]1CCCN1C(=O)[C@@H](N)Cc1ccc(O)cc1)C(N)=O', 2.76),
  ('NC(=O)[C@H](Cc1ccccc1)NC(=O)[C@H](Cc1c[nH]c2ccccc12)NC(=O)[C@@H]1CCCN1C(=O)[C@@H](N)Cc1ccc(O)cc1 [ENDOMORPHIN-1]', 2.46),
  ('C[C@H](c1ccccc1)[C@@H](NC(=O)[C@H](Cc1c[nH]c2ccccc12)NC(=O)[C@@H]1CCCN1C(=O)[C@@H](N)Cc1ccc(O)cc1)C(N)=O', 3.17),
  ('C[C@@H](c1ccccc1)[C@@H](NC(=O)[C@@H]1CCCN1C(=O)[C@@H](N)Cc1ccc(O)cc1)C(=O)N[C@@H](Cc1ccccc1)C(N)=O', 1.72),
  ('C[C@@H](c1ccccc1)[C@H](NC(=O)[C@H](Cc1c[nH]c2ccccc12)NC(=O)[C@@H]1CCCN1C(=O)[C@@H](N)Cc1ccc(O)cc1)C(N)=O', 2.06);

* * *

# measured.target: Mu-type opioid receptor (Rattus norvegicus)
# protocol: In vitro binding affinity towards Opioid receptor mu 1 in rat brain membranes
Residues, ends and D or L forms follow the SMILES beside them.
outcome.measure: IC50 (nM)

INSERT INTO measurements (compound, outcome_measure, data_value) VALUES
  ('N[C@@H](Cc1ccc(O)cc1)C(=O)N1CCC[C@H]1C(=O)N[C@@H](Cc1ccccc1)C(=O)O (H-Tyr-Pro-Phe-OH)', 'IC50', 161);

* * *

# measured.target: Delta-type opioid receptor (Rattus norvegicus)
# protocol: Displacement of [3H]Ile5,6-deltorphin II from opioid receptor delta 1 of rat brain membranes
pKi: −log10 of the molar value.
Catalogue of pKi readings, one per entry.
outcome.measure: pKi

INSERT INTO assay_data (smiles_representation, measured_target, outcome_measure, data_value) VALUES
  ('C[C@H](c1ccccc1)[C@@H](NC(=O)[C@H](Cc1ccccc1)NC(=O)[C@@H]1CCCN1C(=O)[C@@H](N)Cc1ccc(O)cc1)C(N)=O', 'Delta-type opioid receptor (Rattus norvegicus)', 'pKi', 5.29),
  ('C[C@@H](c1ccccc1)[C@H](NC(=O)[C@H](Cc1ccccc1)NC(=O)[C@@H]1CCCN1C(=O)[C@@H](N)Cc1ccc(O)cc1)C(N)=O', 'Delta-type opioid receptor (Rattus norvegicus)', 'pKi', 5.20),
  ('C[C@H](c1ccccc1)[C@H](NC(=O)[C@H](Cc1ccccc1)NC(=O)[C@@H]1CCCN1C(=O)[C@@H](N)Cc1ccc(O)cc1)C(N)=O', 'Delta-type opioid receptor (Rattus norvegicus)', 'pKi', 5.31),
  ('C[C@H](c1ccccc1)[C@@H](NC(=O)[C@@H]1CCCN1C(=O)[C@@H](N)Cc1ccc(O)cc1)C(=O)N[C@@H](Cc1ccccc1)C(N)=O', 'Delta-type opioid receptor (Rattus norvegicus)', 'pKi', 5.17),
  ('C[C@@H](c1ccccc1)[C@H](NC(=O)[C@@H]1CCCN1C(=O)[C@@H](N)Cc1ccc(O)cc1)C(=O)N[C@@H](Cc1ccccc1)C(N)=O', 'Delta-type opioid receptor (Rattus norvegicus)', 'pKi', 6.75);

* * *

IC50 data for Mu-type opioid receptor (Cavia porcellus, UniProt P97266) follow.
outcome.measure: IC50 (nM)

INSERT INTO measurements (smiles_representation, data_value) VALUES
  ('C[C@@H](c1ccccc1)[C@@H](NC(=O)[C@H](Cc1ccccc1)NC(=O)[C@@H]1CCCN1C(=O)[C@@H](N)Cc1ccc(O)cc1)C(N)=O', 589),
  ('C[C@H](c1ccccc1)[C@@H](NC(=O)[C@H](Cc1ccccc1)NC(=O)[C@@H]1CCCN1C(=O)[C@@H](N)Cc1ccc(O)cc1)C(N)=O', 816),
  ('C[C@@H](c1ccccc1)[C@H](NC(=O)[C@H](Cc1ccccc1)NC(=O)[C@@H]1CCCN1C(=O)[C@@H](N)Cc1ccc(O)cc1)C(N)=O', 3.46),
  ('C[C@H](c1ccccc1)[C@H](NC(=O)[C@H](Cc1ccccc1)NC(=O)[C@@H]1CCCN1C(=O)[C@@H](N)Cc1ccc(O)cc1)C(N)=O', 89.9);
